Collected from the literature: log10 of IC50 of various compounds toward Acyl-CoA:cholesterol acyltransferase (Oryctolagus cuniculus, UniProt Q95214).
MEASUREMENT TARGET: Acyl-CoA:cholesterol acyltransferase (Oryctolagus cuniculus, UniProt Q95214)
Sequence (Q95214 whole entry): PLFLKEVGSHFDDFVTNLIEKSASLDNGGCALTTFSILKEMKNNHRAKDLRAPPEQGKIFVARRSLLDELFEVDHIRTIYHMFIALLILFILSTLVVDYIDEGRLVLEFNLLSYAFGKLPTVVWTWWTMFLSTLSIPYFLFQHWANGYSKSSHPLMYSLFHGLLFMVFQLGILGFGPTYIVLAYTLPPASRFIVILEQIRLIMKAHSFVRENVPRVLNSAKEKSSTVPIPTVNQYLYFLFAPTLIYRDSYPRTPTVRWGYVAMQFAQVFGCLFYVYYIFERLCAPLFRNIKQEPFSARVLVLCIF
The base-10 logarithm of IC50, taken with IC50 in nM, is what appears here.

Query: log10 of IC50; subject: CC(C)c1cccc(C(C)C)c1NC(=O)Nc1nc2ccccc2n1-c1c(Cl)cccc1Cl 1.04

Param item = Cn1ccnc1SCCCCSc1nc(-c2ccccc2)c(-c2ccccc2)[nH]1 ; retrieve measured log10 of IC50. 2.26

What does the record list as log10 of IC50 for COc1cccc(C2(CNC(=O)Nc3c(C(C)C)cccc3C(C)C)CCCC2)c1 ? 1.11

Reported log10 of IC50 for CC(C)c1cccc(C(C)C)c1NC(=O)Nc1nc2ccccc2n1-c1ccccc1N(C)C : what is it? 1.61

So what does the record say about log10 of IC50 for CC(C)c1cccc(C(C)C)c1NC(=O)NCC1(c2ccc(CC(C)(C)C)cc2)CCCC1 ? 2.20

Consider the compound CC(C)c1cccc(C(C)C)c1NC(=O)NCC1(c2ccc(F)cc2)CCCC1 and give its measured log10 of IC50. 1.36

Entry CCCCCNC(=O)Nc1c(CCCCn2cnc(-c3ccccc3)c2C)cccc1N(C)C has what log10 of IC50? 2.15

Quick check: log10 of IC50 of COCCN1CCc2c(C)c(NS(C)(=O)=O)c(C)c(NC(=O)C(C)(C)C)c21 ? 2.43

// log10 of IC50 lookup, key: CC(C)c1cccc(C(C)C)c1NC(=O)NCC1(c2ccc([N+](=O)[O-])cc2)CCCC1 2.12

Quick one: log10 of IC50 of CCCCCCNc1c(OCCCn2cnc(-c3ccccc3)c2)cccc1N(C)C ? 3.52

----------
Below: molecules with pIC50 recorded for Acyl-CoA:cholesterol acyltransferase (Oryctolagus cuniculus, UniProt Q95214) in separate published works.
pIC50 (log units): -log10 of the concentration in mol/L.

# value lookup — system Acyl-CoA:cholesterol acyltransferase (Oryctolagus cuniculus, UniProt Q95214), readout pIC50, item CCCCCNC(=O)Nc1c(OCCCN2CCC(c3ccccc3)CC2)cccc1N(C)C 6.33

Observed pIC50 on Acyl-CoA:cholesterol acyltransferase (Oryctolagus cuniculus, UniProt Q95214) for CC(C)c1cccc(C(C)C)c1NC(=O)NCC1(c2cccc(N(C)C)c2)CCCC1 , please. 7.48

Acyl-CoA:cholesterol acyltransferase (Oryctolagus cuniculus, UniProt Q95214) / pIC50 / CCCCCNC(=O)Nc1cc(OCCCn2cnc(-c3ccccc3)c2C)ccc1N(C)C : value? 6.39

Notebook entry, Acyl-CoA:cholesterol acyltransferase (Oryctolagus cuniculus, UniProt Q95214) assay: pIC50 of CC(C)c1cccc(C(C)C)c1NC(=O)NCC1(c2cccc(C(F)(F)F)c2)CCCC1 = ? 7.57

Param readout = pIC50; param system = Acyl-CoA:cholesterol acyltransferase (Oryctolagus cuniculus, UniProt Q95214); param query = CCCCCNC(=O)Nc1c(OCCCn2cc(-c3ccc(OC)cc3)nc2C)cccc1N(C)C ; response: value 6.14

Report pIC50 for CC(C)c1cccc(C(C)C)c1NC(=O)NCC1(c2ccc(N(C)C)cc2C(F)(F)F)CCCC1 tested on Acyl-CoA:cholesterol acyltransferase (Oryctolagus cuniculus, UniProt Q95214). 7.30

Please state recorded pIC50 (tested on Acyl-CoA:cholesterol acyltransferase (Oryctolagus cuniculus, UniProt Q95214)) of Cc1cccc(C)c1NC(=O)Nc1nc2ccccc2n1-c1ccccc1Cl 6.38

API: value(readout= pIC50, system= Acyl-CoA:cholesterol acyltransferase (Oryctolagus cuniculus, UniProt Q95214), query= CC(C)c1cccc(C(C)C)c1NC(=O)Nc1nc2cccnc2n1-c1ccccc1Cl ) 7.48

// fetch Acyl-CoA:cholesterol acyltransferase (Oryctolagus cuniculus, UniProt Q95214) pIC50 for CC(C)c1cccc(C(C)C)c1NC(=O)NCC1(c2cccc(CN)c2)CCCC1 6.36

Item CCCCCNC(=O)Nc1c(OCCCn2cnc3ccccc32)cccc1N(C)C with Acyl-CoA:cholesterol acyltransferase (Oryctolagus cuniculus, UniProt Q95214) - pIC50? 6.21

----------
MEASUREMENT TARGET: Acyl-CoA:cholesterol acyltransferase (Oryctolagus cuniculus, UniProt Q95214)
Sequence (Q95214 whole entry): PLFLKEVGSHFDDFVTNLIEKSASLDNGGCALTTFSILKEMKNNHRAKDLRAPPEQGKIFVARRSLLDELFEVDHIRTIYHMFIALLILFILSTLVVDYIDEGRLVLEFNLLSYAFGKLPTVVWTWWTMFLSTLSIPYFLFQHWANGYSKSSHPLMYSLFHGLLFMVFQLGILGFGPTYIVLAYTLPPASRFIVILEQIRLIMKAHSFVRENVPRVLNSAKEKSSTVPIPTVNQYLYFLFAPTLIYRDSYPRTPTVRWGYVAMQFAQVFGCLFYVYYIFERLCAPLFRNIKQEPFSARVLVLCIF
For reference, the following pIC50 results for Acyl-CoA:cholesterol acyltransferase (Oryctolagus cuniculus, UniProt Q95214) were taken from various sources.
To interpret pIC50, take it as minus log10 of a concentration measured in moles per litre.

Notebook entry, Acyl-CoA:cholesterol acyltransferase (Oryctolagus cuniculus, UniProt Q95214) assay: pIC50 of CC(C)c1cccc(C(C)C)c1NC(=O)NCC1(c2cccc(OCc3ccccc3)c2)CCCC1 = ? 7.52

Find pIC50 (Acyl-CoA:cholesterol acyltransferase (Oryctolagus cuniculus, UniProt Q95214)) for the entry c1ccc(-c2nc(SCCCCCCn3cccn3)[nH]c2-c2ccccc2)cc1 6.23

GET /values?readout=pIC50&system=Acyl-CoA:cholesterol acyltransferase (Oryctolagus cuniculus, UniProt Q95214)&item= COc1ccccc1C1(CNC(=O)Nc2c(C(C)C)cccc2C(C)C)CCCC1 7.64

Provide value of pIC50 for this record tested with Acyl-CoA:cholesterol acyltransferase (Oryctolagus cuniculus, UniProt Q95214): CCCCCNC(=O)Nc1c(OCCCCn2cnc(-c3ccccc3)c2)cccc1N(C)C 6.11

----------
Literature-derived IC50 for Acyl-CoA:cholesterol acyltransferase (Oryctolagus cuniculus, UniProt Q95214) follows.
Write down the numeric answer in nM and omit the unit.

Kindly state the measured IC50 obtained for Cn1ccnc1SCCCSc1nc(-c2ccccc2)c(-c2ccccc2)[nH]1 with Acyl-CoA:cholesterol acyltransferase (Oryctolagus cuniculus, UniProt Q95214). 970

Enter reported IC50 observed with Acyl-CoA:cholesterol acyltransferase (Oryctolagus cuniculus, UniProt Q95214) for CC(C)c1cccc(C(C)C)c1NC(=O)NCC1(c2ccc(OCc3ccccc3)cc2)CCCC1 34

API: value(readout= IC50, system= Acyl-CoA:cholesterol acyltransferase (Oryctolagus cuniculus, UniProt Q95214), query= CCCCCNC(=O)Nc1c(OCCCN2CCN(c3ccccc3)CC2)cccc1N(C)C ) 180

Give the reported IC50 for CCCCCCCCCCN1CCc2c(C)c(CC(=O)O)c(C)c(NC(=O)C(C)(C)C)c21 (system: Acyl-CoA:cholesterol acyltransferase (Oryctolagus cuniculus, UniProt Q95214)). 910

Find IC50 (Acyl-CoA:cholesterol acyltransferase (Oryctolagus cuniculus, UniProt Q95214)) for the entry Cc1c2c(c(NC(=O)C(C)(C)C)c(C)c1NS(C)(=O)=O)N(C)CC2 8800

# get_value(readout= IC50, system= Acyl-CoA:cholesterol acyltransferase (Oryctolagus cuniculus, UniProt Q95214)) for CCCCCNC(=O)Nc1c(SCCCn2cnc(-c3ccccc3)c2C)cccc1N(C)C 58

Quick check: IC50 on Acyl-CoA:cholesterol acyltransferase (Oryctolagus cuniculus, UniProt Q95214), item COc1ccc(C2(CNC(=O)Nc3c(C(C)C)cccc3C(C)C)CCCC2)cc1 ? 31

Lab note: need IC50 with Acyl-CoA:cholesterol acyltransferase (Oryctolagus cuniculus, UniProt Q95214) for entry CN(C)c1cccc(OCCCn2cnc(-c3ccccc3)c2)c1NC(=O)NC(C)(C)C , please look it up. 990

Value wanted: IC50 (Acyl-CoA:cholesterol acyltransferase (Oryctolagus cuniculus, UniProt Q95214)) of entry c1ccc(-c2nc(SCCCCCSc3ncc[nH]3)[nH]c2-c2ccccc2)cc1 880

API: value(readout=IC50, system=Acyl-CoA:cholesterol acyltransferase (Oryctolagus cuniculus, UniProt Q95214)) for record CCCCCNC(=O)Nc1c(OCCCn2cnc(C)c2-c2ccccc2)cccc1N(C)C 210
